# Tested on: K562 (chronic myelogenous leukaemia)
# procedure details: Effect of compounds on tumor cell lines (assay of Latham et al.), K562
# Type: cell-based
# assay context: Table 1; K562 cells, examined 96 hours after treatment, 1 μM to 100 μM in DMSO; read-out: K 562 potency (IC50)
pIC50: −log10 of the molar value.
Quick reference: pIC50 of the listed items.

# molecule, pIC50
data = [
    ("COc1cc(C=C(Sc2ccc(Br)cc2)C(=O)c2ccc(Br)cc2)ccc1O [Example 41]", "5.00 to 6.00"),
    ("O=C(C(=Cc1ccc(O)c([N+](=O)[O-])c1)Sc1ccc(Br)cc1)c1c(F)c(F)c(F)c(F)c1F [Example 42]", "5.00 to 6.00"),
    ("Cc1ccc(SC(=Cc2c[nH]c3ccc(Br)cc23)C(=O)c2ccc(Br)cc2)cc1 [Example 105]", "4.60 to 5.00"),
    ("Cc1ccc(SC(=Cc2ccc(-c3ccccc3)cc2)C(=O)c2ccc(Br)cc2)cc1 [Example 110]", "4.30 to 4.60"),
    ("COc1ccc(C(=O)C(=Cc2c(OC)cc(OC)cc2OC)Sc2ccc(F)cc2)cc1 [Example 54]", "4.00 to 4.30"),
    ("O=C(C(=Cc1ccccc1OCc1ccccc1)Sc1ccc(Br)cc1)c1ccc(Cl)cc1 [Example 21]", "4.60 to 5.00"),
    ("COc1ccccc1C=C(Sc1ccc(C)cc1)C(=O)c1ccc(Cl)cc1 [Example 75]", "4.60 to 5.00"),
    ("COc1cc(OC)c(C=C(Sc2ccc(Br)cc2)C(=O)c2ccc(Cl)cc2)c(OC)c1 [Example 14]", "4.00 to 4.30"),
]

---

# Tested on: K562 (chronic myelogenous leukaemia)
# procedure details: Effect of compounds on tumor cell lines (assay of Latham et al.), K562
# Type: cell-based
# assay context: Table 1; K562 cells, examined 96 hours after treatment, 1 μM to 100 μM in DMSO; read-out: K 562 potency (IC50)
Quick reference: IC50 of the listed items.

# compound, IC50
rows = [
    ("CSc1ccc(C=C(Sc2ccc(Br)cc2)C(=O)c2ccc(Cl)cc2)cc1", "1 to 10 µM"),
    ("O=C(C(=Cc1ccc(O)c([N+](=O)[O-])c1)Sc1ccc(Br)cc1)c1ccc(Br)cc1", "1 to 10 µM"),
    ("COc1ccc(C=C(Sc2ccc(C)cc2)C(=O)c2ccc(Br)cc2)cc1", "10 to 25 µM"),
    ("Cc1cc(C)cc(C=C(Sc2ccc(Br)cc2)C(=O)c2ccc(Cl)cc2)c1", "1 to 10 µM"),
    ("COc1ccc(C=C(Sc2ccc(C)cc2)C(=O)c2ccc(Cl)cc2)cc1O", "1 to 10 µM"),
    ("Cc1ccc(SC(=Cc2c[nH]c3ccccc23)C(=O)c2ccc(Cl)cc2)cc1", "1 to 10 µM"),
    ("Cc1ccc(SC(=Cc2ccc[nH]2)C(=O)c2ccc(Cl)cc2)cc1", "10 to 25 µM"),
    ("O=C(C(=Cc1ccc(OC(F)(F)F)cc1)Sc1ccc(Br)cc1)c1ccc(Br)cc1", "1 to 10 µM"),
    ("O=C(C(=Cc1c(O)cc(O)cc1O)Sc1ccccc1Br)c1ccc(Br)cc1", "> 100 µM"),
    ("Cc1ccc(SC(=Cc2sccc2C)C(=O)c2ccc(Br)cc2)cc1 [Example 83]", "50 to 100 µM"),
    ("O=C(C(=Cc1ccc(F)cc1F)Sc1ccc(Br)cc1)c1ccc(Cl)cc1", "1 to 10 µM"),
    ("Cc1ccc(SC(=Cc2ccc(F)c([N+](=O)[O-])c2)C(=O)c2ccc(Br)cc2)cc1", "1 to 10 µM"),
    ("O=C(C(=Cc1c(O)cc(O)cc1O)Sc1ccccc1Br)c1ccc(Cl)cc1", "> 100 µM"),
    ("Cc1ccc(SC(=Cc2cc(C)cc(C)c2)C(=O)c2ccc(Cl)cc2)cc1", "25 to 50 µM"),
    ("O=C(C(=Cc1ccc(Cl)cc1)Sc1ccc(Br)cc1)c1ccc(Br)cc1", "1 to 10 µM"),
    ("Cc1ccc(SC(=Cc2cnc3ccccc3c2)C(=O)c2ccc(Cl)cc2)cc1", "> 100 µM"),
    ("O=C(C(=Cc1ccc(O)cc1O)Sc1ccc(Br)cc1)c1ccc(Cl)cc1", "25 to 50 µM"),
    ("Cc1ccc(SC(=Cc2ccc(Cl)c(Cl)c2)C(=O)c2ccc(Br)cc2)cc1", "50 to 100 µM"),
]
